The reported measurements were obtained from the supplement of paper PMC10567573.

Listing of entries alongside the reported protein stability index.
B1: C19orf51 (parent)
chain: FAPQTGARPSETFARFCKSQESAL

Variants of: B1
Assay: protein stability index of a GFP-peptide fusion (GPS, HEK-293T) (PSI 1-6); higher = more stable;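 also: lentivirally expressed fusions sorted by FACS into six bins by GFP to DsRed ratio, PSI derived from sequencing read proportions per bin multiplied by bin number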
Settings: c terminus: a fixed tail appended
Would you mind answering with just the numeric figure?

Example variants with recorded protein stability index:
[
  {
    "Variant Designation": "T5E",
    "protein stability index": 2.42
  },
  {
    "Variant Designation": "A14R",
    "protein stability index": 1.82
  },
  {
    "Variant Designation": "F16H",
    "protein stability index": 2.07
  }
]

Recorded result, P3K , protein stability index: 2.51

Sample P3I ; protein stability index observed: 1.72

Looking up L24M , I see its protein stability index listed as 1.56

Query R15E yields protein stability index of 2.65

Quick note, protein stability index for A23T landed at 2.07

Notebook: E21F , protein stability index read as 1.76

S19G yielded protein stability index of 2.82

Noted for G6V : its protein stability index reads 2.13

According to the records, this variant R8M displays protein stability index of 1.87
